# run description: folding stability dG unfold from chymotrypsin proteolysis; higher = more stable
Binned folding stability dG unfold; ranges: bottom end: < 1 kcal/mol; midrange: ≥ 1 kcal/mol and < 3 kcal/mol; top end: ≥ 3 kcal/mol

// below: answered sequences
SAGGSVPERAKVVTLVLRFEEPESLGIPLLERLLRELGFPDAVLGEVRIEPLPDGSVVAVVPLLVPSAGGSA [r2_346_TrMRF]; top end
SAGGDPDEIKKVIITARIYRPDPDGNIHTATIPIIIEGPLDEVIEKVAKEIEEAFGTKIVEITVEKGSAGGS [r16_511_TrMRF]; midrange
SAGMSSTPQKIVRTTGSTPLPDGSAVSTTTTTYSDGSSTVTTAIPGGLETRATVPPDGTVTTTTAPLLGSAG [r5_168_JUSTAS]; bottom end
SAGGSAGGSAGIKKQRNPDGQERETIEIRTKNQPIPITFPPDDNADDLANNFGLPADDIRSAGGSAGGSAGG [r11_1039_TrROS]; bottom end
SAGGSAGGEEEELTEEERRELERRRRRLEEERRRRRPPRPRLRLTLTVRLPDGSTVTLEVEIRLSAGGSAGG [r6_844_TrROS_Hall]; top end
SAGKKVVIIEIEEVTNEDGEKEYKIRVLVKDEETGEVTEREITVKEGESIEDLIKKALEEGADEVIIVPSAG [r5_37_TrROS_Hall]; top end

Q. Entry SAGGKELILKLKIEVNGKTLTIEVKVSPEELKKLLDELKKLGIKEIEIESIEFDKETNEIKVKVKVKSAGGS [r8_219_TrROS_Hall] belongs to which category?
A. top end

Q. One more sequence: SAGGSAGGEIKAKVPYEKYPKYYKVKVEIYDPNTKKKIEYEALFPKGTKISAEEIAKKIVKKIKSAGGSAGG [r6_233_TrMRF]
A. midrange

Q. One more sequence: SAGGRIEVRPLEGSGAVLVRILDPELRKKLEEKFPDVTEILFPVEGAEDIPLEELRDRAIKEIEELIDSAGG [r19_298_TrMRF]
A. bottom end

Q. One more sequence: SAGGSAGGSAGGSAGRLVKETKTTSYIFTFKKPTGEPISKKTSFVTSSLILLSDPSKISSAGGSAGGSAGGS [r4_450_JUSTAS]
A. top end

Q. One more sequence: SAGKELTIEIVIERNGELITLTIKAKSEEELLEALKKLLEELGFEVEDIKIEKKDGEVIVTVTIRLPKKSAG [r5_946_TrROS_Hall]
A. top end

Q. One more sequence: SAKLEIELNGYKIVSVEVNEDGTVKMKIEVDGKLYELTLKVKLPPPKVEVKEEKKEVKEVKFVKEGEEKSAG [r14_218_TrROS_Hall]
A. midrange

Q. One more sequence: SAGGSAGGSAGGEIKVEVVPVDGKLRVKVTLEDGEKIEIEVPENTTLDELKKLAEELAKKSAGGSAGGSAGG [r7_265_TrROS_Hall]
A. midrange

Q. One more sequence: SAGGSAGGSAGGMTPIEVTVELEEPTRRTTRRFTFTSPEEVEAYLKALPASWRVTRVELRSAGGSAGGSAGG [r17_410_JUSTAS]
A. midrange
